B1: CPEB3 Ribozyme (parent)
chain: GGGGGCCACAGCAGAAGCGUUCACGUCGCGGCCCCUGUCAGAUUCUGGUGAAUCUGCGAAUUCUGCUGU

- Variants of: B1
- PROTOCOL_DESCRIPTION: self-cleavage, relative activity (ratio to wild type); higher = more cleavage; co-transcriptional
Returns satisfied if the recorded self-cleavage is greater than or equal to 0.4, and not satisfied otherwise.

Observe how each entry below is paired with its result.
VARIANT_DESIGNATION | CATEGORY_LABEL
U20A A59C | not satisfied
A16C C54U | not satisfied
C32U A60G | satisfied
G2C G11C | not satisfied
A40G G50U | satisfied
A15G C33G | satisfied
A51C G58A | satisfied
G14U U53C | not satisfied

API: the following record is the query input.
Exam item: decide whether the reported self-cleavage for C22G C63A is at least 0.4.
not satisfied

Attribution: the RNAGym collection of RNA variant scans (doi:10.7554/elife.80360)
